Listed below: molar heat capacity at constant pressure values for each entry.
- assay-method-text: molar heat capacity at constant pressure
- condition-context: 347.15 K; 101.33 kPa; Liquid; DSC
readout-type: molar heat capacity at constant pressure (J/K/mol)

[
  {
    "item-smiles": "CCCC[n+]1ccn(C2CCCC2)c1.O=S(=O)([N-]S(=O)(=O)C(F)(F)F)C(F)(F)F",
    "readout-type": "molar heat capacity at constant pressure",
    "uom": "J/K/mol",
    "result-number": 689.07
  },
  {
    "item-smiles": "CCCCn1cc[n+](C(CC)CC)c1.O=S(=O)([N-]S(=O)(=O)C(F)(F)F)C(F)(F)F",
    "readout-type": "molar heat capacity at constant pressure",
    "uom": "J/K/mol",
    "result-number": 733.89
  },
  {
    "item-smiles": "CCCCC[n+]1ccn(CCCC)c1.O=S(=O)([N-]S(=O)(=O)C(F)(F)F)C(F)(F)F",
    "readout-type": "molar heat capacity at constant pressure",
    "uom": "J/K/mol",
    "result-number": 723.29
  },
  {
    "item-smiles": "CCCCn1cc[n+](CCC(C)C)c1.O=S(=O)([N-]S(=O)(=O)C(F)(F)F)C(F)(F)F",
    "readout-type": "molar heat capacity at constant pressure",
    "uom": "J/K/mol",
    "result-number": 723.05
  }
]

The measurements presented in this section are drawn from the NIST ThermoML archive (doi:10.1016/j.fluid.2017.03.021).
